Assay: AML differentiation inducers, ER-HoxA9 marrow cells – cell-based, GFP/MAC1 double positive, flow cytometry, validation set, primary screen (AID 588685);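 note: compound exposure lasts four days before antibody staining and flow analysis; 0% = DMSO wells and 100% = 5 µM fulvestrant positive control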
Settings: normalized: vehicle 0, fulvestrant 100
The source made the active and inactive calls.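 Rule for the calls: active = differentiation response of at least 50%, scaled between solvent and reference control, from cells with both markers; inactive = the rest.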
Outcome (select one): active, inactive

[Q] Status in this test for CCOC(=O)Cn1c(C)cc(=O)c2ccccc21 ?
[A] active

[Q] What call does the record list for CCOc1ccc2nc(S(N)(=O)=O)sc2c1 ?
[A] inactive

[Q] For Cc1cc(C)c(NC(=O)NC(=O)C(Cl)(Cl)Cl)c(C)c1 , which call appears in the assay record?
[A] inactive

[Q] Dear colleague, could you share the recorded outcome for COc1cc2c(cc1OC)/C(=C/c1ccc(Cl)cc1)C(=O)OC2 when you have a moment?
[A] inactive

[Q] Tell me the assay call for Cc1ccc(C(=O)NCCNC(=O)c2ccccc2)cc1 please.
[A] inactive

[Q] What did the test return for COc1ccccc1NC(=O)N1CCc2[nH]c3ccc(Cl)cc3c2C1 ?
[A] inactive

[Q] In this assay, the call recorded for CCOCCCNCc1cn(-c2ccc(F)cc2F)nc1-c1ccccc1C was what?
[A] inactive

[Q] State the result this test recorded for C#C[C@]1(O)CC[C@H]2[C@@H]3CCC4=CC(=O)CC[C@@H]4[C@H]3CC[C@@]21CC .
[A] inactive

[Q] Answer briefly: the call reported for CC1(C)C(=O)OC(C(=O)c2ccc(Cl)cc2)C(C)(C)C1=O (stereo unspecified) in this assay.
[A] inactive

[Q] Which result was noted for this molecule in the test: O=C(OCCN1CCOCC1)c1cccs1
[A] inactive

[Q] Look up the recorded call for NS(=O)(=O)c1ccc(CCNC(=O)C2CCCN2C(=O)OCc2ccccc2)cc1 (stereo unspecified) in this test.
[A] inactive

[Q] Hi, sorry to bother you, what did the test record for CCCc1c(OCCCCc2nn[nH]n2)ccc(C(C)=O)c1O ?
[A] inactive

[Q] Hey, what did the test say about CCOC(=O)c1c(O)c2c([nH]c1=O)CCCC2 ?
[A] inactive

[Q] # lookup: test call for COc1ccccc1/C=C/CN1CCN(Cc2ccc(F)cc2)C(CCO)C1 (stereo unspecified)
[A] inactive

[Q] Record lookup: outcome of this test for COc1ccc(C(=O)CCN2CCc3cc(OC)c(OC)cc3C2)cc1 ?
[A] inactive

[Q] So what was the verdict on Cc1oncc1C(=O)Nc1ccc(C(F)(F)F)cc1 in this test?
[A] inactive

[Q] Hey, what did the test say about CCn1nc(C(=O)O)c(=O)c2cc3c(cc21)OCO3 ?
[A] inactive

[Q] I would be grateful if you could indicate the recorded call for CCCC(=O)Nc1ncnc2c1ncn2[C@@H]1O[C@@H]2COP(=O)(O)O[C@H]2[C@H]1OC(=O)CCC .
[A] inactive

[Q] I would be grateful if you could indicate the recorded call for CN(C)CCC=C1c2ccccc2CCc2ccccc21 .
[A] inactive

[Q] Called result for Nc1cc(-c2ccncc2)c[nH]c1=O
[A] inactive

[Q] Would you mind telling me which call this test gave CC(C)N(Cc1nccn1C)C(=O)CC1C(=O)NCCN1Cc1ccccc1C(F)(F)F (stereo unspecified) ?
[A] inactive

[Q] So what was the verdict on COc1ccc(-c2nc(NC(C)=O)sc2-c2ccc(OC)cc2)cc1 in this test?
[A] inactive

[Q] Hi, do you know how Cc1ccc(CSCC(=O)N2CCCC2)cc1 came out in this test?
[A] inactive

[Q] Just curious, what result did COc1ccc(-c2cc(=O)oc3cc(OC(C)C(=O)O)ccc23)cc1 (stereo unspecified) get here?
[A] inactive

[Q] Dear all, I need the recorded test outcome for CN(C)CCOC(=O)C(c1ccccc1)C1(O)CCCC1 (stereo unspecified) , thank you.
[A] inactive

[Q] What outcome does the record of this test show for COc1ccc(C2=CC(=O)C=CC2=O)cc1 ?
[A] inactive

---

Biological target: GTPase HRas (Homo sapiens) (UniProt P01112)
Sequence (P01112 whole entry, looked up): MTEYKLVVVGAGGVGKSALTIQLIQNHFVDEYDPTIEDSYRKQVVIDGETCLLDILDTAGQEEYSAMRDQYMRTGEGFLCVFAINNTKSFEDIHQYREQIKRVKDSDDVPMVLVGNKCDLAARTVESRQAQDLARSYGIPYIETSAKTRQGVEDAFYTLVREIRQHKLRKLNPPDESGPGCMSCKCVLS
Experiment: Ras wt fluorescent GTP loading blockade – biochemical, wildtype, multiplex bead flow cytometry, dose response (AID 1335)
Details: bead-based flow cytometry, Bodipy-GTP binding to GST-Ras; at 100 µM (top of the series) unless noted
Please map values of GTP binding, percent of control to classes as shown: L: < 80%; M: ≥ 80% and < 90%; H: ≥ 90%

[Q] Assign a category based on measured GTP binding, percent of control for CC1(C)Cc2c(sc3c2C2=NCCN2C=N3)CS1 and give only the class name.
[A] M

[Q] Which category fits this record: Cc1nnc2ccc(-c3ccc(NC(=O)c4ccco4)cc3)nn12
[A] H

[Q] Which band does COCCNC(=O)c1cnn2c(C(F)F)cc(-c3ccccc3)nc12 fall in?
[A] M

[Q] Which class does COc1ccc(C(=O)O)c(OCc2c(C)cccc2C)c1 fall in?
[A] H

[Q] Would you mind sorting Cc1cccc(CCNc2ncccc2C(=O)O)c1 into the appropriate category?
[A] H

[Q] Please classify: CCCCN1C(=O)/C(=C/C=C2\N(C)c3ccccc3C2(C)C)SC1=S
[A] H

[Q] Class label required: COc1cccc(-c2cc(C(F)(F)F)c(C#N)c(=O)[nH]2)c1
[A] L

[Q] Class? Entry: COc1ccc(/C=N/n2c(N)c(S(=O)(=O)c3cccs3)c3nc4ccccc4nc32)cc1OC
[A] L

[Q] # classify by GTP binding, percent of control band: N#Cc1c(-c2ccccc2)nc(SCC(=O)Nc2ccccc2)[nH]c1=O
[A] L

[Q] Form field 'band' for COc1cc(/C=C(/C#N)c2nc3ccccc3[nH]2)ccc1OCc1ccc(C(=O)O)o1
[A] L

[Q] Could you place COc1ccc(NC(=O)c2cc3nc(-c4ccccc4)cc(C)n3n2)cc1OC in its proper category? Many thanks.
[A] L

[Q] # bin lookup: classify COc1ccc(OCc2oc3ccc(OC)cc3c2C(=O)O)cc1 by its GTP binding, percent of control
[A] M

[Q] Would you mind sorting CCn1cc(C(=O)O)c(=O)c2cc(F)c(N/N=C/c3ccccc3)cc21 into the appropriate category?
[A] L

[Q] Place this molecule in its band: COc1ccc(NC(=S)N(CCN(C)C)C(C)c2ccco2)cc1Cl (stereo unspecified)
[A] L

[Q] GET /class?item= NC(=O)c1c(NC(=O)c2cnccn2)sc2c1CCCC2
[A] H

[Q] Class? Entry: COc1cc2[nH]c(=S)nc(NCCc3ccc(C)cc3)c2cc1OC
[A] L

[Q] The entry to classify is Cc1ccc(C2C(C#N)C(C#N)N3CCCN23)cc1 (stereo unspecified) ; which class holds it?
[A] H

[Q] Looking at COc1cc([N+](=O)[O-])cc(/C=N/NC(=O)c2ccc(NC(=O)c3ccc(C)cc3)cc2)c1O , which class would you pick?
[A] L

---

Assay: reduced mouse 2C T cell binding to pMHC/ICAM-1 vesicles – MLPCN validation set, flow cytometry, LFA-1/ICAM-1 modulator project, pilot screen (AID 2523)
Conditions: 2C mouse CD8+ T cells, at 7 µM, stronger effect = lower value; measured here: CD8+/vesicle+ event percentage
double positive events strictly less than 60% = class 1. Otherwise class 0.

[Q] # strict comparison: is reported double positive events < 60%? input = CC[N+](C)(C)c1cccc(O)c1
[A] class 1

[Q] Check if double positive events falls below 60% for OC(CCN1CCCC1)(c1ccccc1)C1CCCCC1 (stereo unspecified) .
[A] class 0

[Q] For Cc1ccc(/C=N/Nc2nc(C(C)(C)C)cs2)o1 , is the recorded double positive events below the cut-off of 60%?
[A] class 0

[Q] is_below(double positive events, 60%) for CC(C)OC(=O)c1ccc(NC(=O)c2cncc(Br)c2)cc1 ?
[A] class 1

[Q] API: query returns whether the molecule falls strictly under 60% in double positive events. Query: Cc1ccc(S(=O)(=O)NC(C(=O)Oc2ccc3c(C(F)(F)F)cc(=O)oc3c2)c2ccccc2)cc1 (stereo unspecified)
[A] class 0

[Q] Please determine if CC(=O)N[C@@H](CS)C(=O)O is below 60% in terms of double positive events.
[A] class 0

[Q] Please state whether double positive events is below 60% for CC(C)(S)[C@@H](N)C(=O)O
[A] class 0

[Q] Determine if O=C(NCc1ccc(N2CCCC2=O)cc1)c1ccc(F)cc1 shows double positive events strictly lower than 60%.
[A] class 0

[Q] Just wondering, is double positive events of C#C[C@]1(O)CC[C@H]2[C@@H]3CCc4cc(OC)ccc4[C@H]3CC[C@@]21C below 60%?
[A] class 0

---

Assay: TOR pathway LAP4-GFP level changes – S. cerevisiae, multiplex flow cytometry, primary screen (AID 1873)
Details: S. cerevisiae LAP4-GFP expression, 3 h, at 10 µM, stronger effect = higher value
Inconclusive results are not listed.
Kindly state GFP response vs DMSO for each of the entries shown.
Numeric answer only, unit % assumed.

[Q] Need GFP response vs DMSO of O=C(/C=C/c1ccc2c(c1)OCCCO2)c1ccc2ccccc2c1O , thanks.
[A] 112

[Q] Give the measured GFP response vs DMSO of COc1c2ccoc2nc2c(OC)cccc12 .
[A] 102

[Q] Query: GFP response vs DMSO; subject: O=C(NCCN1CCN(c2ccccc2)CC1)c1cccc(Br)c1
[A] 88.6

[Q] Entry COc1ccc(CNCCC2(C(C)C)CCOC(C)(C)C2)cc1 (stereo not given) : reported GFP response vs DMSO = ?
[A] 88.7

[Q] Please report the recorded GFP response vs DMSO for CC1(C)CC(NC(=O)C23CCC(C)(C(=O)C2=O)C3(C)C)CC(C)(C)N1 (stereo not given) .
[A] 116

[Q] Quick one: GFP response vs DMSO of CCN1CCn2c3c(c4cc(Cl)ccc42)CCCC31 (stereo not given) ?
[A] 107

[Q] I'd like to know its GFP response vs DMSO. The molecule in question is Nc1cc(-c2ccncc2)c[nH]c1=O
[A] 102

[Q] # GFP response vs DMSO lookup, item COc1ccccc1OS(=O)(=O)c1ccc(NC(C)=O)cc1
[A] 82.5

[Q] Suppose we examine the molecule O=C(N1CCCCC1)C1(c2ccccc2)CCOCC1 ; what GFP response vs DMSO value has been reported?
[A] 129

[Q] // returns reported GFP response vs DMSO for input COc1c2c(nc3occc13)C(CC=C(C)C)(OC)C(O)CC2 (stereo not given)
[A] 95.7

[Q] What value of GFP response vs DMSO has been reported for the following molecule? Cc1ccc(-n2cc(CNCCN3CCOC3=O)c(-c3ccc(F)cc3)n2)cc1
[A] 85

[Q] Need GFP response vs DMSO of CC(C)OC(=O)C1C(=O)CC(C)(O)C(C(=O)OC(C)C)C1c1cccc(O)c1 (stereo not given) , thanks.
[A] 101

[Q] Given the molecule CC(C)[C@H](NC(=O)[C@@H]1CSCN1C(=O)OC(C)(C)C)C(=O)NCC1CCC(C(=O)O)CC1 (stereo not given in full) , what is its reported GFP response vs DMSO?
[A] 84.6

[Q] Sample COc1ccc2c(c1OC)C(C1c3c(cc4c(c3OC)OCO4)CCN1C)OC2=O (stereo not given) — what was its GFP response vs DMSO?
[A] 88.7

[Q] Item under review: OC(CCN1CCCC1)(c1ccccc1)C1CCCCC1 (stereo not given) . Reported GFP response vs DMSO?
[A] 80.9
